assay: Half life in C57BL/6 mouse whole blood at 100 uM by LC-MS/MS analysis; assay type: ADME, tissue-based
Numbered stars: 1 amine (or outer) side, 2 acyl side, 3 side chain; on linkers, the order of the positions; unused ones are H or OH. Bridge positions count the residues as written; N and C are the ends. Square brackets hold non-standard residues; d marks the D form. Peptide text beside a SMILES is read from it. Trp(5-F) = N[C@@H](Cc1c[nH]c2ccc(F)cc12)C(=O)O; X1 = O=C(CCSCc1cccc(CSCCN[*:1])c1)[*:2]; mXylylene = c1cc(C[*:1])cc(C[*:2])c1; αMeP = C[C@@]1(C(=O)O)CCCN1; Mpa = O=C(O)CCS
Property measured: half-life at 100 µM (h)

{"Molecule": "C[C@@]12CCCN1C(=O)[C@H](Cc1ccc(O)cc1)NC(=O)[C@H](Cc1cnc[nH]1)NC(=O)[C@H](CC(=O)O)NC(=O)[C@H](Cc1c[nH]c3ccc(F)cc13)NC(=O)[C@H](Cc1c[nH]c3ccc(F)cc13)NC(=O)CNC(=O)[C@H](CCCCN)NC(=O)CCSCc1cccc(c1)CSC[C@@H](C(N)=O)NC2=O ([Mpa]KG[Trp(5-F)][Trp(5-F)]DHY[αMeP]C-NH2; linker 1-10 via mXylylene)", "Unit annotation": "h", "Assay result": 5.19}
{"Molecule": "C[C@@]12CCCN1C(=O)[C@H](Cc1ccc(O)cc1)NC(=O)[C@H](Cc1cnc[nH]1)NC(=O)[C@H](CC(=O)O)NC(=O)[C@H](Cc1c[nH]c3ccc(F)cc13)NC(=O)[C@H](Cc1c[nH]c3ccc(F)cc13)NC(=O)CNC(=O)[C@H](CCCCN)NC(=O)CCSCc1cccc(c1)CSCCNC2=O (cyclo(DHY[αMeP][X1]KG[Trp(5-F)][Trp(5-F)]))", "Unit annotation": "h", "Assay result": 5.56}
